Experiment: Cell Viability - SH-SY5Y (AID 544);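 also: cells exposed to compound for 40 hours; nearly all actives have a fitted effect of over 55% in size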
Settings: SH-SY5Y neuroblastoma cell viability; series mostly up to 92.2 µM
Results filed as inconclusive are left out. Active and inactive are the calls of the source. Calls follow the shape of the dose curve; as a rule, active = well fitted cell-killing curve with a large enough effect; inconclusive = small, poorly fitted or top-dose-only effect; inactive = flat fitted curve, though single readings scatter. Peptide text beside a SMILES is read from it.
Select the correct class. Options are yes (active), no (inactive) and nothing else.

Query: How was CCCCC(CC)COC(=O)C(C#N)=C(c1ccccc1)c1ccccc1 (stereo unspecified) classified in this test?
Response: no

Query: Repeat for the following compound: `CCc1nc(N)nc(N)c1-c1ccc(Cl)cc1`
Response: no

Query: Same for `Cc1ccc(C)c(OCCCC(C)(C)C(=O)O)c1`
Response: no

Query: And for `COc1c2occc2cc2ccc(=O)oc12` ?
Response: no

Query: Entry to check: `CN(C)c1ccc2nc3ccc(=[N+](C)C)cc-3sc2c1`
Response: yes

Query: Ok, now COC(=O)[C@H](Cc1ccccc1)NC(=O)[C@@H](N)CC(=O)O (H-Asp-Phe-OMe)
Response: no

---

Test: A High-Content qHTS Against Drug Library for the Identification of Small Molecules that Inhibit DYT1 Early Onset Primary Dystonia-Associated Cell Pathology (AID 1645839)
Conditions: HEK293 Flp-In EGFP-delE TorsinA, punctate imaging, 48 h; series mostly up to 46.1 µM
Results filed as inconclusive are left out. Calls of active or inactive are those of the source. Calls follow the shape of the full dose curve.
property-label: % pathology change, negative = correction

Some solved cases for reference:
# compound, reported
rows = [
    ("Nc1ccc(S(N)(=O)=O)cc1", "inactive"),
    ("COc1ccc2cc([C@H](C)C(=O)O)ccc2c1", "inactive"),
    ("O=C(O)c1cn(-c2ccc(F)cc2)c2cc(N3CCNCC3)c(F)cc2c1=O", "inactive"),
    ("COc1cc2nc(N3CCN(C(=O)C4CCCO4)CC3)nc(N)c2cc1OC (configuration not stated)", "inactive"),
    ("CCCCC(CC)COC(=O)C(C#N)=C(c1ccccc1)c1ccccc1 (configuration not stated)", "inactive"),
    ("CC(S)C(=O)NCC(=O)O (configuration not stated)", "inactive"),
    ("N=C(N=C(N)N)N1CCOCC1", "inactive"),
    ("CS(=O)(=O)OCCCCOS(C)(=O)=O", "inactive"),
]

Query: Would you mind telling me what % pathology change, negative = correction value was observed for `CC1=C(C(=O)O)N2C(=O)[C@@H](NC(=O)[C@H](N)C3=CCC=CC3)[C@H]2SC1` ?
Response: inactive

Query: Same lookup for `COc1c2occc2cc2ccc(=O)oc12` , please.
Response: inactive

Query: Queued: `CN(C)C(=O)COC(=O)Cc1ccc(OC(=O)c2ccc(N=C(N)N)cc2)cc1`
Response: inactive

Query: What do you get for `c1ccc2[nH]c(-c3cscn3)nc2c1` ?
Response: inactive

---

System: CP192
Assay: qHTS profiling for inhibitors of Plasmodium falciparum proliferation (AID 504749); also: nearly all actives have a fitted effect of over 60% in size
Settings: P. falciparum in erythrocytes, SYBR Green DNA, 72 h; series mostly up to 28.7 µM
Records with an inconclusive call do not appear. Activity calls are given as the source filed them. Calls follow the shape of the dose curve; as a rule, active = well fitted inhibition curve with a large enough effect; inconclusive = small, poorly fitted or top-dose-only effect; inactive = flat fitted curve, though single readings scatter.
Please reply with one of these outcomes: true (active), false (inactive)

Query: Per the records of this test, what outcome belongs to O=C(OC1C[C@H]2CC[C@@H](C1)[N+]21CCCC1)C(O)(c1ccccc1)c1ccccc1 (stereo partly specified) ?
Response: true

Query: Query `Oc1ccc(OCc2ccccc2)cc1` next
Response: false

Query: Also `CC(C)c1ccc2oc3nc(N)c(C(=O)O)cc3c(=O)c2c1` , if possible.
Response: false

Query: `NNc1nncc2ccccc12` , same question.
Response: false

Query: Same lookup for `COC1=C(OC)C(=O)C(CCCCCCCCCCO)=C(C)C1=O` , please.
Response: false

Query: Quick one: `CC1(C)CCC(C)(C)c2cc(NC(=O)c3ccc(C(=O)O)cc3)ccc21`
Response: false

Query: Would you kindly repeat that for CCN(CCO)CCCC(C)Nc1ccnc2cc(Cl)ccc12 (stereo unspecified) ?
Response: false

Query: What would you report for `CN(c1nccc(=O)[nH]1)C1CCN(c2nc3ccccc3n2Cc2ccc(F)cc2)CC1` ?
Response: false

Query: Same read-out for CCCCN(CCCC)CCC(O)c1cc2c(Cl)cc(Cl)cc2c2cc(C(F)(F)F)ccc12 (stereo unspecified) ?
Response: true

Query: Same for `O=C1CCc2ccc(OCCCCN3CCN(c4cccc(Cl)c4Cl)CC3)cc2N1`
Response: false

Query: Another molecule: `CN(C)C(=O)COC(=O)Cc1ccc(OC(=O)c2ccc(N=C(N)N)cc2)cc1`
Response: false

---

Tested on: FAB9
Assay: qHTS profiling for inhibitors of Plasmodium falciparum proliferation (AID 504749); also: nearly all actives have a fitted effect of over 60% in size
Conditions: P. falciparum in erythrocytes, SYBR Green DNA, 72 h; series mostly up to 28.7 µM
Results filed as inconclusive are left out. Active and inactive are the calls of the source. The call rests on the fitted dose curve; in most records, active means well fitted inhibition curve with a large enough effect; inconclusive means small, poorly fitted or top-dose-only effect; inactive means flat fitted curve, though single readings scatter.
Choose one outcome from this list and give only that: active, inactive

Query: Dear all, I need the recorded test outcome for `O=C(NCCO[N+](=O)[O-])c1cccnc1` , thank you.
Response: inactive

Query: Next up: `Cc1cc(C2CCCCC2)n(O)c(=O)c1`
Response: active

Query: Another molecule to check: `CCN(CC)CCOc1ccc(Cc2ccccc2)cc1`
Response: inactive

Query: Subsequent entry: `Cc1nc2n(c(=O)c1CCN1CCC(c3noc4cc(F)ccc34)CC1)CCCC2`
Response: inactive

Query: Record: `CC(C)[C@H](N)C(=O)OCCOCn1cnc2c(=O)[nH]c(N)nc21`
Response: inactive

Query: Check `O=P(O)(O)C(O)(Cn1ccnc1)P(=O)(O)O` too.
Response: inactive

Query: Do the same for CC1=C(C)C(=O)C(C(CCCCCC(=O)O)c2ccccc2)=C(C)C1=O (configuration not stated) please
Response: inactive

Query: What do we get for `O=C(O)c1cccc(-c2noc(-c3ccccc3F)n2)c1` ?
Response: inactive

Query: Then this molecule: COc1cc2c(cc1OC)C1CC(=O)C(CC(C)C)CN1CC2 (configuration not stated)
Response: inactive

Query: Again, but for `O=C1c2ccccc2-c2n[nH]c3cccc1c23`
Response: inactive

Query: Please answer likewise for C[Se]CCC(N)C(=O)O (configuration not stated)
Response: inactive

Query: Lookup `CN(c1nccc(=O)[nH]1)C1CCN(c2nc3ccccc3n2Cc2ccc(F)cc2)CC1`
Response: inactive

---

Biological target: Cytochrome P450 2D6 (Homo sapiens) (UniProt P10635)
Sequence (P10635 whole entry, looked up): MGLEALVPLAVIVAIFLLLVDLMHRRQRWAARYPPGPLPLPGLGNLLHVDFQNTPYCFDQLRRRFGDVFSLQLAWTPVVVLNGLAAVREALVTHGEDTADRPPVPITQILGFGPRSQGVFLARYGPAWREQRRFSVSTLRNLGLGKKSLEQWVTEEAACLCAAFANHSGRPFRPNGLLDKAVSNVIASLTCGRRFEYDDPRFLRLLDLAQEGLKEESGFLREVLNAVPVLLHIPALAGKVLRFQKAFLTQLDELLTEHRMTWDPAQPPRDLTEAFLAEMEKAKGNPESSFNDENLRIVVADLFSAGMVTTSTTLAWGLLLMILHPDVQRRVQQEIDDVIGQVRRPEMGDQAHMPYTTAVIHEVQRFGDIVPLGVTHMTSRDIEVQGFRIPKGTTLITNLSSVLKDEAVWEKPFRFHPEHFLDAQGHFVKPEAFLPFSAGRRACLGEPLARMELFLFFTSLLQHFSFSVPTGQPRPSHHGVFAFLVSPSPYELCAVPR
Experiment: Cytochrome P450 family 2 subfamily D member 6 (CYP2D6) small molecule antagonists: luciferase biochemical (cell-free) qHTS assay (AID 1645840); also: nearly all actives have a fitted effect of over 55% in size
Settings: P450-Glo CYP2D6 enzyme, luciferin luminescence, 1 h; series mostly up to 57.4 µM
Inconclusive results are not listed. Active and inactive are the calls of the source. The call rests on the fitted dose curve; in most records, active means well fitted inhibition curve with a large enough effect in the repeat runs; inconclusive means weak or mixed curves; inactive means flat fitted curve, though single readings scatter.

# molecule, outcome
measured = [
    ("O=C(NC(Cc1cc(=O)[nH]c2ccccc12)C(=O)O)c1ccc(Cl)cc1 (stereo not drawn)", "inactive"),
    ("Cc1ccc(C)c(OCCCC(C)(C)C(=O)O)c1", "inactive"),
    ("CC1Cc2ccccc2N1NC(=O)c1ccc(Cl)c(S(N)(=O)=O)c1 (stereo not drawn)", "inactive"),
]

---

Tested on: CP291
Assay: qHTS profiling for inhibitors of Plasmodium falciparum proliferation (AID 504749); also: nearly all actives have a fitted effect of over 60% in size
Settings: P. falciparum in erythrocytes, SYBR Green DNA, 72 h; series mostly up to 28.7 µM
Records with an inconclusive call do not appear. Active and inactive are the calls of the source. The call rests on the fitted dose curve; in most records, active means well fitted inhibition curve with a large enough effect; inconclusive means small, poorly fitted or top-dose-only effect; inactive means flat fitted curve, though single readings scatter.
Respond using exactly one of the listed classes: active, inactive

Query: What did this assay record as the result for `C[C@]12CCC(=O)C=C1CC[C@@H]1[C@H]2[C@@H](O)C[C@@]2(C)[C@H]1CC[C@]2(O)C(=O)CO` ?
Response: inactive

Query: Also need `N[C@@H](Cc1cc(I)c(Oc2cc(I)c(O)c(I)c2)c(I)c1)C(=O)O` , thanks.
Response: inactive

Query: Another compound to look at: Clc1ccc(C(Cn2ccnc2)OCc2ccsc2Cl)c(Cl)c1 (configuration not stated)
Response: active

Query: Note, next up: `CN(C)CCc1c[nH]c2ccc(Cn3cncn3)cc12`
Response: inactive

Query: How about this compound: `Cc1ccc(C)c(OCCCC(C)(C)C(=O)O)c1`
Response: inactive

Query: Could you do the same for Nc1ccn([C@@H]2O[C@H](CO)[C@@H](O)C2O)c(=O)n1 (some centres not stated) , please?
Response: inactive

Query: Let us now turn to CCC1=C(C)CN(C(=O)NCCc2ccc(S(=O)(=O)NC(=O)NC3CCC(C)CC3)cc2)C1=O (configuration not stated)
Response: inactive

---

Assay: Quantitative High-Throughput drug screen in 47 multiple myeloma cell lines against the NCATS MIPE library collection: KMS34_JCRB cell viability assay (AID 1918985); also: nearly all actives have a fitted effect of over 40% in size
Conditions: KMS34 myeloma viability, CellTiter-Glo ATP luminescence, 48 h; series mostly up to 45.8 µM
Results filed as inconclusive are left out. Active and inactive are the calls of the source. Calls follow the shape of the dose curve; as a rule, active = well fitted cell-killing curve with a large enough effect; inconclusive = small, poorly fitted or top-dose-only effect, or effect the other way; inactive = no such curve, though single readings can be large or run the other way.
Hi there, use one of these labels in your reply, thanks! active, inactive

Query: Outcome? COC(=O)C1=C(C)NC(C)=C(C(=O)OCCCN2CCC(c3ccccc3)(c3ccccc3)CC2)C1c1cccc([N+](=O)[O-])c1 (configuration not stated)
Response: active

Query: How about this compound: `CCN(CC)CCOc1ccc(Nc2ncc3cc(-c4c(Cl)cccc4Cl)c(=O)n(C)c3n2)cc1`
Response: active

Query: How about this compound: `c1ccc2[nH]c(-c3cscn3)nc2c1`
Response: inactive

Query: Also, `CCCCCCCCCCCCCCCCCCCCCCO` please.
Response: inactive

Query: One more compound: `COc1ccccc1N1CCN(CCN(C(=O)C2CCCCC2)c2ccccn2)CC1`
Response: inactive

Query: Can you handle CC1Cc2ccccc2N1NC(=O)c1ccc(Cl)c(S(N)(=O)=O)c1 (configuration not stated) next?
Response: inactive

Query: Entry to check: `Clc1ccc2c(N3CCN(CCCN4CCN(c5ccnc6cc(Cl)ccc56)CC4)CC3)ccnc2c1`
Response: inactive

Query: Follow-up item: `CCOC(=O)c1c(C)n(C)c2ccc(O)cc12`
Response: active

Query: Can you handle CCC1=C(C)CN(C(=O)NCCc2ccc(S(=O)(=O)NC(=O)NC3CCC(C)CC3)cc2)C1=O (configuration not stated) next?
Response: inactive

Query: Repeat for the following compound: `CN1CCC(=C2c3ccccc3CCc3sccc32)CC1`
Response: inactive

Query: Also `COC(=O)N[C@H](C(=O)N[C@@H](Cc1ccccc1)[C@@H](O)CN(Cc1ccc(-c2ccccn2)cc1)NC(=O)[C@@H](NC(=O)OC)C(C)(C)C)C(C)(C)C` ?
Response: active

Query: Now the compound `CCOC(=O)C1=C[C@@H](OC(CC)CC)[C@H](NC(C)=O)[C@@H](N)C1`
Response: inactive

Query: Again, but for `Oc1ccc2ccccc2c1SSc1c(O)ccc2ccccc12`
Response: active

Query: Try this compound too: `CCOc1cc(CC(=O)N[C@@H](CC(C)C)c2ccccc2N2CCCCC2)ccc1C(=O)O`
Response: inactive

Query: What would you report for `O=C(NOCC1CC1)c1ccc(F)c(F)c1Nc1ccc(I)cc1Cl` ?
Response: active

Query: Now the compound CN(C)CCCC1(c2ccc(F)cc2)OCc2cc(C#N)ccc21 (configuration not stated)
Response: inactive

Query: Here is the next compound: CCCCC(CC)COC(=O)C(C#N)=C(c1ccccc1)c1ccccc1 (configuration not stated)
Response: inactive

Query: Also check `NS(=O)(=O)c1cc(C(=O)O)c(NCc2ccco2)cc1Cl`
Response: inactive

Query: Same again, this time with `Cc1cc(C2CCCCC2)n(O)c(=O)c1`
Response: active

Query: Continue with `COc1cc(OC)c(C(=O)CCCN2CCCC2)c(OC)c1`
Response: inactive

Query: Also, Nc1cccc2c1CN(C1CCC(=O)NC1=O)C2=O (configuration not stated) please.
Response: inactive

Query: Another: `Cc1cccc(-c2[nH]ncc2-c2ccc3ncccc3n2)n1`
Response: inactive
